test system: Trichoderma koningii; test: Antifungal activity against Trichoderma koningii assessed as radial growth at 7% after 48 hrs by poison food technique of Flack relative to control; type: functional
Decide by inhibition (INH): equal to or exceeding 90% means Fulfilled, less means Not fulfilled.

INSERT INTO measurements (molecule, category) VALUES
  ('CCOC(=O)C1=C(C)NC(=S)NC1c1ccccc1O (stereo unspecified)', 'Fulfilled'),
  ('CCOC(=O)C1=C(C)NC(=O)NC1c1ccccc1 (stereo unspecified)', 'Fulfilled'),
  ('CCOC(=O)C1=C(C)NC(=O)NC1c1ccc(N(C)C)cc1 (stereo unspecified)', 'Not fulfilled'),
  ('CCOC(=O)C1=C(C)NC(=S)NC1c1ccc(N(C)C)cc1 (stereo unspecified)', 'Fulfilled'),
  ('CCOC(=O)C1=C(C)NC(=O)NC1c1ccccc1O (stereo unspecified)', 'Fulfilled');
